Values from patent US7855213B2

The following compounds each carry a recorded pIC50 for human β-Secretase (Homo sapiens).
Where a name gives a salt, the structure may show the parent alone.
// scale note: pIC50 = -log10(conc_M); give the bare number

These solved cases illustrate the format of a correct answer.
compound	recorded_result
NC1=NC(c2cccc(OS(=O)(=O)C(F)(F)F)c2)(c2ccc(F)c(-c3cccnc3F)c2)c2ccccc21 (stereo not shown)	6.57
COc1ccc(C#N)c(-c2cccc(C3(C4CC4)N=C(N)c4ccccc43)c2)c1 (stereo not shown) [Example 91, acetate]	6.38
COc1ncc(C2(c3cccc(-c4cccnc4F)c3)N=C(N)c3ccccc32)cn1 (stereo not shown)	6.36

Simply: NC1=NC(c2cccc(-c3cncnc3)c2)(c2ccc3c(c2)OCCO3)c2ccccc21 (stereo not shown) [Example 18, trifluoroacetate] , human β-Secretase (Homo sapiens), pIC50 = 6.23

Entry CS(=O)(=O)Oc1ccc(C2(c3cccc(-c4cncnc4)c3)N=C(N)c3ccccc32)cc1 (stereo not shown) [Example 38, trifluoroacetate] under human β-Secretase (Homo sapiens) had pIC50 of 6.15

// returns pIC50 for NC1=NC(c2ccc(OS(=O)(=O)C(F)(F)F)cc2)(c2ccc(F)c(-c3cncnc3)c2)c2ccccc21 (stereo not shown) with human β-Secretase (Homo sapiens); value = 6.34

Record NC1=NC(c2ccncc2)(c2cccc(-c3cncnc3)c2)c2ccccc21 (stereo not shown) [Example 45, trifluoroacetate] has human β-Secretase (Homo sapiens) pIC50 equal to 6.30
